Provide the reported Mean % WT Binding of each item.
target: human CD33 S195A (human, UniProt P20138 18-364); assay: alanine scan, flow cytometry, HEK293-T;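 note: antibody binding to each alanine-substituted CD33 mutant expressed transiently in HEK293-T, read as fluorescence minus background, mean of duplicates, relative to wild-type CD33 set as 100%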
Sequence (P20138 18-364 S195A limits assumed): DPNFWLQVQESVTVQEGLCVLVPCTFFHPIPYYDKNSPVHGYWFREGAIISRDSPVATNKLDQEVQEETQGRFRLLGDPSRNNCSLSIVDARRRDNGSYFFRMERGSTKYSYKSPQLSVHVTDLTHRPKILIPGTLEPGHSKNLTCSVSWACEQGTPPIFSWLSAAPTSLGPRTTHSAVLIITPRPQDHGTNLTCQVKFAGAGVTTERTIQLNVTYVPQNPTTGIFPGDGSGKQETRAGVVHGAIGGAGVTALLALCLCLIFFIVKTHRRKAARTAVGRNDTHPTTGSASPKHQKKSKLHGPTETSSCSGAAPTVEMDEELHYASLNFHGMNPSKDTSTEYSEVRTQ
Your answer is read as %, so omit the unit and give the number.

Need Mean % WT Binding, item Refmab #2 (antibody, V domains shown, In the alanine scan antibodies were used as IgG or Fab) VH: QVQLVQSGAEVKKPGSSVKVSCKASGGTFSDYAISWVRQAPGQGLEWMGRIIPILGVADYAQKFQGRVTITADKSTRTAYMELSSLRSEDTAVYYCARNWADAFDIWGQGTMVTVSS VL: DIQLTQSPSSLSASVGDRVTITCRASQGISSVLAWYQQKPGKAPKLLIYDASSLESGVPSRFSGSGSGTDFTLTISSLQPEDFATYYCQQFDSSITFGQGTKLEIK
119

Need Mean % WT Binding, item Refmab #3 (antibody, V domains shown, In the alanine scan antibodies were used as IgG or Fab) VH: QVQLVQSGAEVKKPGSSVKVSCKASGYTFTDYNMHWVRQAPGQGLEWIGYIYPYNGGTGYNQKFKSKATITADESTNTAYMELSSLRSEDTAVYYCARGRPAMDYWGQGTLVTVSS VL: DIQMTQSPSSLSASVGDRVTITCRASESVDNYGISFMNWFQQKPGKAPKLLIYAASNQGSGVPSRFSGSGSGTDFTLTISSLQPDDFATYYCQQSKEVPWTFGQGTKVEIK
95.2

Need Mean % WT Binding, item Refmab #1 (antibody, V domains shown, In the alanine scan antibodies were used as IgG or Fab; also called hP67.6) VH: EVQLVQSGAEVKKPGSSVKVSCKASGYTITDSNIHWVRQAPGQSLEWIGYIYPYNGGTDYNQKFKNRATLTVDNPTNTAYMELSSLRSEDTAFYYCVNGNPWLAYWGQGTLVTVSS VL: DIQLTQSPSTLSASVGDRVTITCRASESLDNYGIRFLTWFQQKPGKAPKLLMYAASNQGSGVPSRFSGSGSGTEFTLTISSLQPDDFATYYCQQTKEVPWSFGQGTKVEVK
86.9

Need Mean % WT Binding, item Refmab #4 (antibody, V domains shown, In the alanine scan antibodies were used as IgG or Fab) VH: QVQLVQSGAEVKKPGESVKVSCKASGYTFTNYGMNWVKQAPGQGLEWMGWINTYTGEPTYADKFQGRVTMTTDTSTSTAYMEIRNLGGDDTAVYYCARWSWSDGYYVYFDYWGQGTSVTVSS VL: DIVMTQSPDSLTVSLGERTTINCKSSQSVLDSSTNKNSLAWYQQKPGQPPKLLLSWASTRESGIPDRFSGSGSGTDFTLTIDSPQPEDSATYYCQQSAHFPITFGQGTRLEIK
112
